# self-cleavage annotations
B1: HDV Ribozyme (parent)
chain: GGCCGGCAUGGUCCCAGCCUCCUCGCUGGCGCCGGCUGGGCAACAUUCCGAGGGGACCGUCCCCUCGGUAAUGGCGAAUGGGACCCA

Variants of: B1
Protocol Details: self-cleavage, relative activity (ratio to wild type); higher = more cleavage; co-transcriptional
Value Kind: self-cleavage

{"Mutant Id": "G39A C58A", "Data Value": 0.475}
{"Mutant Id": "U47G G80A", "Data Value": 0.242}
{"Mutant Id": "G55A A77G", "Data Value": 0.991}
{"Mutant Id": "C21G C61G", "Data Value": 0.0386}
{"Mutant Id": "C41A G52C", "Data Value": 0.928}
{"Mutant Id": "U20G G68C", "Data Value": 0.166}
{"Mutant Id": "U37A G40C", "Data Value": 0.0519}
{"Mutant Id": "C22U C86A", "Data Value": 0.779}
{"Mutant Id": "A56U C62U", "Data Value": 0.847}
{"Mutant Id": "C18G U47G", "Data Value": 0.256}
{"Mutant Id": "U9C A42C", "Data Value": 0.475}
{"Mutant Id": "G34A A51U", "Data Value": 0.174}
{"Mutant Id": "U27A C32A", "Data Value": 0.0604}
{"Mutant Id": "C21U G50A", "Data Value": 0.253}
{"Mutant Id": "C4G C75U", "Data Value": 0.0396}
{"Mutant Id": "C41G U65G", "Data Value": 0.692}
{"Mutant Id": "C57G C62G", "Data Value": 0.87}
{"Mutant Id": "U9A U72G", "Data Value": 0.787}
{"Mutant Id": "U47G A87G", "Data Value": 1.16}
{"Mutant Id": "C4A U65G", "Data Value": 0.26}
{"Mutant Id": "C33U U72G", "Data Value": 0.405}
{"Mutant Id": "G28A U65G", "Data Value": 0.0386}

Data credit: the RNAGym collection of RNA variant scans (doi:10.7554/elife.80360)
